Attribution: paper PMC3631453

Tested on: MCF-7
Experiment: Growth inhibition of ER-positive MCF-7 cells, 96h
Type: cell-based
Conditions: read-out: Growth inhibition IC50 after 96h MCF7, OHT ligands
measured.parameter: IC50 (nM)
The reply should contain only the number, in nM.

Q: For the molecule shown here, CC/C(=C(\c1ccc(O)cc1)c1ccc(OCCN(C)C)cc1)c1ccccc1 [OHT, hydroxytamoxifen] , give the reported IC50.
Ans: 150
